These measurements were taken from PubChem BioAssay.

- method_description: reducers of endogenous Her2 protein level, primary screen, SKBR3 breast tumor cells, AlphaScreen, ATP viability (AID 461);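 also: percent of carrier control wells set as 100% viability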
- assay_context: 18-24 h, measured here: SKBR3 viability, ATP luminescence, at 10 µM
assay_endpoint: viability (%)
Give just the number in %; leave the unit off.

# compound, viability / %
data = [
    ("c1ccc(CNc2ncnc3ccccc23)cc1", 86),
]

Ask: Could you tell me which viability is on file for C=CCn1cc(C(=O)NCCOC)c(=O)c2cc(S(=O)(=O)N(CC)CC)ccc21 ?
Reply: 98.5

Ask: CCOc1ccccc1C(=O)N1CCN(c2cccc(Cl)c2)CC1 ?
Reply: 118

Ask: Nc1nc2sc3c(c2c(=O)s1)CCCC3 ?
Reply: 112

* * *

- method_description: reducers of endogenous Her2 protein level, primary screen, SKBR3 breast tumor cells, AlphaScreen, ATP viability (AID 461);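 also: percent of carrier control wells set as 100% viability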
- assay_context: 18-24 h, measured here: SKBR3 viability, ATP luminescence, at 10 µM
Catalogue of viability values
Give just the number in %; leave the unit off.

Below: 8 compounds and their reported viability.
# entry_smiles, result_unit, viability
rows = [
    ("CCOC(=O)CCC(=O)O[C@H]1[C@H](O[C@@H]2[C@@H](C)[C@H](O[C@H]3C[C@@](C)(OC)[C@@H](O)[C@H](C)O3)[C@@H](C)C(=O)O[C@H](CC)[C@@](C)(O)[C@H](O)[C@@H](C)C(=O)[C@H](C)C[C@@]2(C)O)O[C@H](C)C[C@@H]1N(C)C", "%", 97),
    ("COc1cccc(-c2cc(C(F)(F)F)n3ncc(C(=O)O)c3n2)c1", "%", 93),
    ("CCC(C)(C)NC(=O)CN(Cc1ccc2c(c1)OCO2)C(=O)CCC(=O)Nc1ccccn1", "%", 132),
    ("Cc1noc(C)c1C(=O)Nc1ccc(Cl)cc1C(F)(F)F", "%", 91),
    ("CC(=O)N(C(C)=O)c1c(C#N)c(C)n(-c2ccccc2)c1C(=O)c1ccccc1", "%", 86.5),
    ("NC(=O)COC(=O)c1ccc(S(=O)(=O)N2CCCCCC2)cc1", "%", 93),
    ("CCCCN(CCCC)CCCOC(=O)c1ccc(N)cc1", "%", 92),
    ("O=c1c(-c2ccc(Br)cc2)coc2c(CN3CCOCC3)c(O)ccc12", "%", 85.5),
]

Consider the record given below.
Ask: Could you tell me which viability is on file for CCCCOc1cc(=O)[nH]c(=O)[nH]1 ?
Reply: 108

* * *

- method_description: reducers of endogenous Her2 protein level, primary screen, SKBR3 breast tumor cells, AlphaScreen, ATP viability (AID 461);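 also: percent of carrier control wells set as 100% viability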
- assay_context: 18-24 h, measured here: SKBR3 viability, ATP luminescence, at 10 µM
Catalogue of viability values
Give just the number in %; leave the unit off.

Below: 3 molecules and their reported viability.
# molecule, result_unit, viability
rows = [
    ("c1coc(-c2nnc(NC3=NCCC3)o2)c1", "%", 100),
    ("Cc1cc(C)c(C)c(S(=O)(=O)Nc2ccc(O)cc2)c1C", "%", 100),
    ("CC(=O)c1ccc(NS(=O)(=O)c2ccccc2)cc1", "%", 95),
]

Ask: Could you tell me which viability is on file for N#Cc1ccccc1NC(=O)CSc1nnc(-c2ccccc2)n1-c1ccccc1 ?
Reply: 81.5

Ask: Cc1ccc(-c2cc(C(=O)NCc3ccc4c(c3)OCO4)no2)cc1 ?
Reply: 96

Ask: O=c1[nH]c(NCc2ccco2)nnc1Cc1ccccc1Cl ?
Reply: 96.5

Ask: CN(C)CCCN1c2ccccc2CCc2ccccc21 ?
Reply: 105

Ask: COc1ccc(S(=O)(=O)N2CCC(C(=O)c3ccc4c(c3)OCCO4)CC2)cc1 ?
Reply: 88.5

Ask: CCOC(=O)C(NC(C)=O)(Nc1ccc(S(=O)(=O)Nc2nccs2)cc1)C(F)(F)F (centres undefined) ?
Reply: 120

Ask: COC(=O)c1c(O)ccc(Oc2ccccc2)c1C(=O)OC ?
Reply: 104

Ask: c1ccc2c(CC3=NCCN3)cccc2c1 ?
Reply: 101

Ask: CC1=C(C(=O)NC2CCC(C)CC2)C2(CCC(C)CC2)OC1=O (centres undefined) ?
Reply: 112

Ask: COc1ccc(C2c3c(-c4ccccc4O)n[nH]c3C(=O)N2CCc2ccc(OC)c(OC)c2)cc1 (centres undefined) ?
Reply: 112

Ask: C[C@]12C[C@H](O)[C@H]3[C@@H](CCC4=CC(=O)CC[C@@]43C)[C@@H]1CC[C@@H]2C(=O)CO ?
Reply: 106

Ask: CC(=O)Nc1cc2c(nc1C)nc(C)n2Cc1ccc(Br)cc1 ?
Reply: 76

Ask: Cc1ccccc1-n1c(=O)c2ccccc2n2nnnc12 ?
Reply: 80

Ask: CC(C)N(C(=O)CSc1nnc(-c2cc3ccccc3cc2O)n1Cc1ccco1)C(C)C ?
Reply: 90.5

Ask: Cc1ccc(S(=O)(=O)N(CC(=O)NCc2ccco2)Cc2ccccc2F)cc1 ?
Reply: 92

Ask: CCOC(=O)CSc1nnc(-c2ccc(S(=O)(=O)N3CCOCC3)cc2)n1-c1ccccc1 ?
Reply: 93

Ask: CCSc1nncn1/N=C/c1ccc(OC)c(OC)c1 ?
Reply: 84

Ask: Cc1cc(Br)ccc1NC(=O)CNC(=O)CSc1n[nH]c(N)n1 ?
Reply: 110
